Target System: T1, Histidine-tagged human 4-1BB protein (h4-1BB-His) (human, UniProt Q07011 24-186)
T1 construct: not shown: histidine tag
Test Details: SPR (Biacore T200), antibody on Protein A chip, h4-1BB-His injected;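 further: dissociation phase followed for 300 s, Kd derived as koff divided by kon from the kinetic fit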
Measured Kd, listed per entry for reference.
Measure Name: Kd (pM)

[[record]]
binder = "6A5-H3K4-IgG2 (antibody, V domains shown, humanized) VH: QVQLVQSGAEVKKPGSSVKLSCKASGYTFSSYWINWVKQAPGQGLEWIGNIYPSDSYTNYNQKFKDKATLTVDKSTSTAYMELSSLRSEDTAVYYCTRTWEFYYDSVFDYWGQGTTLTVSS VL: DIQMTQSPSSLSASLGERVTITCKASQDINSYLSWFQQKPGKAPKTLIYRANRLVDGVPSRFSGSGSGQDYTLTISSLQPEDIATYYCLQYDELPPTFGGGTKLEIK"
units = "pM"
measurement = 400

[[record]]
binder = "6A5-H3K2-IgG2 (antibody, V domains shown, humanized) VH: QVQLVQSGAEVKKPGSSVKLSCKASGYTFSSYWINWVKQAPGQGLEWIGNIYPSDSYTNYNQKFKDKATLTVDKSTSTAYMELSSLRSEDTAVYYCTRTWEFYYDSVFDYWGQGTTLTVSS VL: DIQMTQSPSSLSASLGERVTITCKASQDINSYLSWYQQKPGKAPKTLIYRANRLVDGVPSRFSGSGSGQDFTLTISSLQPEDIATYYCLQYDELPPTFGGGTKVEIK"
units = "pM"
measurement = 402

[[record]]
binder = "45-8E2-mHvKv-IgG2 (antibody, V domains shown) VH: EVKLLESGGGLVQPGGSLKLSCAASGFDFSRYWMSWVRQAPGKGLEWIGEIHPDSSAINYTPSLKDKFIISRDNAKNTLYLQMSKVRSEDTALYYCARSYYGRVFDYWGQGTTLTVSS VL: DIVMTQSPATLSVTPGDRVSLSCRASQSISDYLHWYQQKSHESPRLLIKYASQSISGIPPRFSGSGSGSDFTLSINSVEPEDVGMYYCQDGHSFPPTFGAGTKLELK"
units = "pM"
measurement = 1280

[[record]]
binder = "61-6A7-mHvKv-IgG2 (antibody, V domains shown) VH: EVQLQQSGAELVRPGALVKLSCKASGFNIKDYYMHWVKRRPEQGLEWIGWIDPENGNTIYDPKFQDKASITADTSSNTAYLQLSSLTSEDTAVYYCAEGLPWYFDYWGQGTTLTVSS VL: QIILTQSPALMSASPGEKVTMTCSASSSVSDMNWYQQKPRSSPTPWIYLTSNLSSGVPDRFSGSGSGTSYSLTISSMEAEDAATYYCQQWSGNPLTFGAGTRLELK"
units = "pM"
measurement = 359

[[record]]
binder = "30-5F9-mHvKv-IgG4 (antibody, V domains shown) VH: QVQLKESGPGLVAPSQSLSITCTVSGFSLTTYDISWVRQPPGKGLEWLGVIWTGGGTNYNSSFMSRLSISKDNSKNQVFLKMNSLQVDDTAIYYCERVDYWGQGTTLTVSS VL: DVVMTQTPLSLPVSLGDQASISCRSSQSLVHSNGNTYLHWYLQKPGQSPKLLIYKVSNRFSGVPDRFSGSGSGTAFTFKISRVEAEDLGVYFCSQNTHVPWTFGGGTKLEIK"
units = "pM"
measurement = 9910

